Provenance of the data: the supplement of paper PMC9732359

Measured protein stability index, listed per entry.
Assay: protein stability index of a GFP-peptide fusion (yeast GPS) (PSI 1-4); higher = more stable; sorted into four equal gates, so the index is relative within each strain
Settings: san1∆
Would you mind answering with just the numeric figure?

Reference set, count: 2
| sequenceChain | protein stability index |
| --- | --- |
| TYLTQEILILINDPTNK [SIN4] | 1.36 |
| FMDETAVALAASDLVLI [SNU114] | 2.69 |

Record summary for SELAPIEEHPTVVDAID [IRR1] : reported protein stability index = 3.25

Reported protein stability index for WLAAATATGIKVFSLDP [ASC1] was 2.81

Record HDELDMNECIADQDMED [ESC2] , field protein stability index: 2.87

protein stability index for ILPTDGSAEFNVKYRAV [RPB7] is 3.08

Record summary for RISGLIYEEVRAVLKSF [HHF1] : reported protein stability index = 3.16

Just so you know, measured protein stability index for KLYKKIAKFERSEEEVT [YIL149C/MLP2] came out at 3.17
